Origin of the recorded values: patent US10913757B2

# System: rat liver mitochondria (RLM)
# procedure_summary: Mitochondrial transmembrane electric potential (ΔΨ) of RLM, safranine fluorescence
# Format: biochemical
# assay_conditions: succinate; 10 μM
Measured ADP-induced depolarization (ΔΨ in - mV), listed per entry.
recorded_metric: ADP-induced depolarization (ΔΨ in - mV)

compound="CS(=O)(=O)[O-].O=C(/C=C/c1ccc(O)c(O)c1)NCCCCCCCCCC[P+](c1ccccc1)(c1ccccc1)c1ccccc1 [AntiOxCIN6]" recorded_metric="ADP-induced depolarization (ΔΨ in - mV)" assay_result="143.6 ± 11.0 mV"
compound="CS(=O)(=O)[O-].O=C(/C=C/c1cc(O)c(O)c(O)c1)NCCCCCC[P+](c1ccccc1)(c1ccccc1)c1ccccc1 [AntiOxCIN4]" recorded_metric="ADP-induced depolarization (ΔΨ in - mV)" assay_result="170.3 ± 5.2 mV"
compound="CS(=O)(=O)[O-].O=C(/C=C/c1ccc(O)c(O)c1)NCCCCCC[P+](c1ccccc1)(c1ccccc1)c1ccccc1 [AntiOxCIN2]" recorded_metric="ADP-induced depolarization (ΔΨ in - mV)" assay_result="178.7 ± 6.3 mV"
compound="CS(=O)(=O)[O-].O=C(/C=C/c1ccc(O)c(O)c1)NCCCCCCCC[P+](c1ccccc1)(c1ccccc1)c1ccccc1 [AntiOxCIN3]" recorded_metric="ADP-induced depolarization (ΔΨ in - mV)" assay_result="172.2 ± 7.5 mV"
compound="CS(=O)(=O)[O-].O=C(/C=C/c1cc(O)c(O)c(O)c1)NCCCCCCCCCC[P+](c1ccccc1)(c1ccccc1)c1ccccc1 [AntiOxCIN7]" recorded_metric="ADP-induced depolarization (ΔΨ in - mV)" assay_result="163.6 ± 3.2 mV"
compound="CS(=O)(=O)[O-].O=C(/C=C/c1cc(O)c(O)c(O)c1)NCCCCCCCC[P+](c1ccccc1)(c1ccccc1)c1ccccc1 [AntiOxCIN5]" recorded_metric="ADP-induced depolarization (ΔΨ in - mV)" assay_result="162.2 ± 7.7 mV"

###

# Tested on: rat liver mitochondria (RLM)
# procedure_summary: Mitochondrial transmembrane electric potential (ΔΨ) of RLM, safranine fluorescence
# Assay type: biochemical
# assay_conditions: succinate; 2.5 μM
# Method: In an embodiment, and as an example, AntiOxCINs and MitoQ toxicity effects on the mitochondrial bioenergetics, namely on RLM ΔΨ and mitochondrial respiration parameters, were measured. […] In addition, the mitochondrial oxidative phosphorylation coupling index, known as respiratory control ratio (RCR, state 3/state 4 respiration) and ADP/O index (the coupling between ATP synthesis and oxygen consumption) were also calculated. […]
Measured Lag Phase, listed per entry.
recorded_metric: Lag Phase (s)

compound="COC1=C(OC)C(=O)C(CCCCCCCCCC[P+](c2ccccc2)(c2ccccc2)c2ccccc2)=C(C)C1=O.CS(=O)(=O)[O-] [MitoQ, reference compound]" recorded_metric="Lag Phase" assay_result=104.8
compound="CS(=O)(=O)[O-].O=C(/C=C/c1cc(O)c(O)c(O)c1)NCCCCCCCCCC[P+](c1ccccc1)(c1ccccc1)c1ccccc1 [AntiOxCIN7]" recorded_metric="Lag Phase" assay_result=80.0
compound="CS(=O)(=O)[O-].O=C(/C=C/c1ccc(O)c(O)c1)NCCCCCC[P+](c1ccccc1)(c1ccccc1)c1ccccc1 [AntiOxCIN2]" recorded_metric="Lag Phase" assay_result=101.2
compound="CS(=O)(=O)[O-].O=C(/C=C/c1ccc(O)c(O)c1)NCCCCCCCCCC[P+](c1ccccc1)(c1ccccc1)c1ccccc1 [AntiOxCIN6]" recorded_metric="Lag Phase" assay_result=77.8
compound="CS(=O)(=O)[O-].O=C(/C=C/c1ccc(O)c(O)c1)NCCCCCCCC[P+](c1ccccc1)(c1ccccc1)c1ccccc1 [AntiOxCIN3]" recorded_metric="Lag Phase" assay_result=84.6
compound="CS(=O)(=O)[O-].O=C(/C=C/c1cc(O)c(O)c(O)c1)NCCCCCCCC[P+](c1ccccc1)(c1ccccc1)c1ccccc1 [AntiOxCIN5]" recorded_metric="Lag Phase" assay_result=80.2
compound="CS(=O)(=O)[O-].O=C(/C=C/c1cc(O)c(O)c(O)c1)NCCCCCC[P+](c1ccccc1)(c1ccccc1)c1ccccc1 [AntiOxCIN4]" recorded_metric="Lag Phase" assay_result=95.6

###

# ADP-induced depolarization (ΔΨ in - mV) per entry
# Tested on: rat liver mitochondria (RLM)
# procedure_summary: Mitochondrial transmembrane electric potential (ΔΨ) of RLM, safranine fluorescence
# Type: biochemical
# assay_conditions: glutamate/malate; 2.5 μM
# Method: In an embodiment, and as an example, AntiOxCINs and MitoQ toxicity effects on the mitochondrial bioenergetics, namely on RLM ΔΨ and mitochondrial respiration parameters, were measured. […] In addition, the mitochondrial oxidative phosphorylation coupling index, known as respiratory control ratio (RCR, state 3/state 4 respiration) and ADP/O index (the coupling between ATP synthesis and oxygen consumption) were also calculated. […]
recorded_metric: ADP-induced depolarization (ΔΨ in - mV)

molecule="CS(=O)(=O)[O-].O=C(/C=C/c1cc(O)c(O)c(O)c1)NCCCCCC[P+](c1ccccc1)(c1ccccc1)c1ccccc1 [AntiOxCIN4]" test_target="rat liver mitochondria (RLM)" recorded_metric="ADP-induced depolarization (ΔΨ in - mV)" assay_result=188.5
molecule="CS(=O)(=O)[O-].O=C(/C=C/c1ccc(O)c(O)c1)NCCCCCCCCCC[P+](c1ccccc1)(c1ccccc1)c1ccccc1 [AntiOxCIN6]" test_target="rat liver mitochondria (RLM)" recorded_metric="ADP-induced depolarization (ΔΨ in - mV)" assay_result=202.5
molecule="COC1=C(OC)C(=O)C(CCCCCCCCCC[P+](c2ccccc2)(c2ccccc2)c2ccccc2)=C(C)C1=O.CS(=O)(=O)[O-] [MitoQ, reference compound]" test_target="rat liver mitochondria (RLM)" recorded_metric="ADP-induced depolarization (ΔΨ in - mV)" assay_result=173.0

###

# System: rat liver mitochondria (RLM)
# procedure_summary: Mitochondrial respiration of isolated RLM (Clark-type oxygen electrode)
# Assay type: biochemical
# assay_conditions: glutamate/malate; 2.5 μM
recorded_metric: ADP/O

compound="CS(=O)(=O)[O-].O=C(/C=C/c1ccc(O)c(O)c1)NCCCCCCCC[P+](c1ccccc1)(c1ccccc1)c1ccccc1 [AntiOxCIN3]" assay_result=2.4
compound="CS(=O)(=O)[O-].O=C(/C=C/c1ccc(O)c(O)c1)NCCCCCC[P+](c1ccccc1)(c1ccccc1)c1ccccc1 [AntiOxCIN2]" assay_result=2.4
compound="CS(=O)(=O)[O-].O=C(/C=C/c1cc(O)c(O)c(O)c1)NCCCCCCCCCC[P+](c1ccccc1)(c1ccccc1)c1ccccc1 [AntiOxCIN7]" assay_result=2.8

###

# Tested on: rat liver mitochondria (RLM)
# procedure_summary: Mitochondrial transmembrane electric potential (ΔΨ) of RLM, safranine fluorescence
# Format: biochemical
# assay_conditions: succinate; 5 μM
Rule: Lag Phase under 80 s gives not satisfied, otherwise satisfied.

compound="COC1=C(OC)C(=O)C(CCCCCCCCCC[P+](c2ccccc2)(c2ccccc2)c2ccccc2)=C(C)C1=O.CS(=O)(=O)[O-] [MitoQ, reference compound]" label=satisfied
compound="CS(=O)(=O)[O-].O=C(/C=C/c1cc(O)c(O)c(O)c1)NCCCCCCCC[P+](c1ccccc1)(c1ccccc1)c1ccccc1 [AntiOxCIN5]" label="not satisfied"
compound="CS(=O)(=O)[O-].O=C(/C=C/c1ccc(O)c(O)c1)NCCCCCCCCCC[P+](c1ccccc1)(c1ccccc1)c1ccccc1 [AntiOxCIN6]" label=satisfied
compound="CS(=O)(=O)[O-].O=C(/C=C/c1cc(O)c(O)c(O)c1)NCCCCCC[P+](c1ccccc1)(c1ccccc1)c1ccccc1 [AntiOxCIN4]" label=satisfied
compound="CS(=O)(=O)[O-].O=C(/C=C/c1cc(O)c(O)c(O)c1)NCCCCCCCCCC[P+](c1ccccc1)(c1ccccc1)c1ccccc1 [AntiOxCIN7]" label="not satisfied"
compound="CS(=O)(=O)[O-].O=C(/C=C/c1ccc(O)c(O)c1)NCCCCCCCC[P+](c1ccccc1)(c1ccccc1)c1ccccc1 [AntiOxCIN3]" label=satisfied
compound="CS(=O)(=O)[O-].O=C(/C=C/c1ccc(O)c(O)c1)NCCCCCC[P+](c1ccccc1)(c1ccccc1)c1ccccc1 [AntiOxCIN2]" label="not satisfied"

###

# Tested on: rat liver mitochondria (RLM)
# procedure_summary: Mitochondrial transmembrane electric potential (ΔΨ) of RLM, safranine fluorescence
# Assay type: biochemical
# assay_conditions: succinate; 2.5 μM
recorded_metric: Maximum potential (ΔΨ in - mV)

compound="CS(=O)(=O)[O-].O=C(/C=C/c1ccc(O)c(O)c1)NCCCCCCCC[P+](c1ccccc1)(c1ccccc1)c1ccccc1 [AntiOxCIN3]" assay_result=191.2
compound="COC1=C(OC)C(=O)C(CCCCCCCCCC[P+](c2ccccc2)(c2ccccc2)c2ccccc2)=C(C)C1=O.CS(=O)(=O)[O-] [MitoQ, reference compound]" assay_result=181.6
compound="CS(=O)(=O)[O-].O=C(/C=C/c1cc(O)c(O)c(O)c1)NCCCCCCCC[P+](c1ccccc1)(c1ccccc1)c1ccccc1 [AntiOxCIN5]" assay_result=196.2
